Biological target: recombinant human SOS1 polypeptide (amino acids 560-1049) (Homo sapiens, UniProt Q07889)
Construct: corresponding to amino acids 560-1049, expressed in E. Coli; made in house; host or cells: E. coli
Sequence (Q07889 560-1049): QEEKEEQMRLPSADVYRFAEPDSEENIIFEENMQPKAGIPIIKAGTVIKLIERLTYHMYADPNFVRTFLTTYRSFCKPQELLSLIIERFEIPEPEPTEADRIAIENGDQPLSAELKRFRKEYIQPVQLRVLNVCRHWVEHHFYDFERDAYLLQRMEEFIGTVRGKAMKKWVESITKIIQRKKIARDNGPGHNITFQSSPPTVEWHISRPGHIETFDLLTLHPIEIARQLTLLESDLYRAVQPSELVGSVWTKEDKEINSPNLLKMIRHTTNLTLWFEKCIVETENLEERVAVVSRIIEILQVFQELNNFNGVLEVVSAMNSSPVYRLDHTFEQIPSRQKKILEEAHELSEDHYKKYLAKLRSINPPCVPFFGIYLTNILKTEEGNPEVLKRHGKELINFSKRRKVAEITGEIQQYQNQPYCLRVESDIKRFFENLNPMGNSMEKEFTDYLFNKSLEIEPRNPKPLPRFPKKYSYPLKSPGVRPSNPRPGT
Experiment: HTRF displacement assay: inhibition of labeled tracer binding to SOS1
Details: Table A, Morrison equation for competitive binding
READOUT: Ki

1. Cc1c(C#N)cccc1[C@@H](C)Nc1nnc(C)c2cnc(N3CCN(C4CC4)CC3)cc12 [Example 1-33]: 1.87 nM
2. Cc1c(C#N)cccc1[C@@H](C)Nc1nnc(C)c2cnc(N3CCN(C(=O)[C@H]4CCCN4C)CC3)cc12 [Example 2-1]: 0.458 nM
3. Cc1c(C#N)cccc1[C@@H](C)Nc1nnc(C)c2cnc(N3CCN(C(=O)[C@H]4CCN(C)C4)CC3)cc12 [Example 2-6]: 0.481 nM
4. CCN1CC[C@@H](N(C)c2cc3c(N[C@H](C)c4cccc(C#N)c4C)nnc(C)c3cn2)C1 [Example 1-88]: 1.37 nM
